// data source = ChEMBL document CHEMBL2396608

- Test system: Escherichia coli
- assay name: Antiadhesive activity against type-1 piliated adherent-invasive Escherichia coli LF82 assessed as inhibition of guinea pig erythrocyte hemagglutination relative to heptylmannoside
- Assay type: functional
reported endpoint: fold change (FC)
// response body must contain only the number

INSERT INTO assay_data (test_smiles, reported) VALUES
  ('O=C(c1cccs1)c1cnc(N[C@H]2O[C@H](CO)[C@@H](O)[C@H](O)[C@@H]2O)s1', 0.1),
  ('O=C(c1ccc2ccccc2c1)c1cnc(N[C@H]2O[C@H](CO)[C@@H](O)[C@H](O)[C@@H]2O)s1', 2.3),
  ('O=C(c1ccccc1)c1cnc(N[C@H]2O[C@H](CO)[C@@H](O)[C@H](O)[C@@H]2O)s1', 0.4);

Proceeding to the next compound to report its fold change (FC).
Assay Escherichia coli, sample CC(=O)c1cnc(N[C@H]2O[C@H](CO)[C@@H](O)[C@H](O)[C@@H]2O)s1 , fold change (FC) read: 1.4

---

- Test system: Escherichia coli
- assay name: Antiadhesive activity against type-1 piliated adherent-invasive Escherichia coli LF82 assessed as inhibition of guinea pig erythrocyte hemagglutination relative to heptylmannoside
- Type: functional
// assign YES if fold change (FC) falls strictly below 0.7, else NO (ties count as NO)

Look over these answered cases.
INSERT INTO results (test_smiles, cat) VALUES
  ('Cc1nc(-c2cnccn2)sc1C(=O)c1cnc(N[C@H]2O[C@H](CO)[C@@H](O)[C@H](O)[C@@H]2O)s1', 'YES'),
  ('O=C(c1cnc(N[C@H]2O[C@H](CO)[C@@H](O)[C@H](O)[C@@H]2O)s1)C12CC3CC(CC(C3)C1)C2', 'YES'),
  ('O=C(c1cnc(N[C@H]2O[C@H](CO)[C@@H](O)[C@H](O)[C@@H]2O)s1)C(F)(F)F', 'NO'),
  ('Cc1ccc(C(=O)c2cnc(N[C@H]3O[C@H](CO)[C@@H](O)[C@H](O)[C@@H]3O)s2)cc1', 'YES'),
  ('O=C(c1ccsc1)c1cnc(N[C@H]2O[C@H](CO)[C@@H](O)[C@H](O)[C@@H]2O)s1', 'YES');

Let's switch to this molecule now.
Determine if CC(C)(C)C(=O)c1cnc(N[C@H]2O[C@H](CO)[C@@H](O)[C@H](O)[C@@H]2O)s1 shows fold change (FC) strictly lower than 0.7.
NO
